test system: Human immunodeficiency virus 1; assay: Antiviral activity against HIV1 3B infected in HeLa cells expressing CD4/CCR5/beta-Gal after 48 hrs by MAGI assay; assay type: functional, organism-based; details: Human immunodeficiency virus 1, 3B
pEC50: −log10 of the molar value.
Value type: pEC50

{"columns": ["Mol smiles", "pEC50"],
 "data": [
  ["N=C1Sc2cc(-c3ccc(C(=O)c4ccc(COC(=O)NCCOCCOCCOCCNC(=O)CCCC[C@@H]5SC[C@@H]6NC(=O)N[C@@H]65)cc4)cc3)ccc2C2=NCCCN12", 5.16]
]}

(a) N=C1Sc2cc(Br)ccc2C2=NCC3(CCN(C(=O)OCc4ccc(C(=O)c5ccc(COC(=O)NCCOCCOCCOCCNC(=O)CCCC[C@@H]6SC[C@@H]7NC(=O)N[C@@H]76)cc5)cc4)CC3)CN12
(b) C#CCOCc1ccc(C(=O)c2ccc(-c3ccc4c(c3)SC(=N)N3CCCN=C43)cc2)cc1
[ask] # compare pEC50 for a vs b ; return the one with the smaller value Refer to your chosen item by its label in the answer.
[reply] a
